- measured.on: Cyclin-dependent kinase 2 (Homo sapiens) (UniProt P24941)
- conditions: Compound concentration 20.0 uM, Protein concentration 2.0 uM, Result type QC Liability
- Description: Thermal Shift Assay. Domain: start/stop: M1-L298
Binarize ΔTm at 0.4 °C; below is Satisfied, at or above is Not satisfied.

Please state whether ΔTm is below 0.4 °C for N#Cc1ccc(C#CC[C@@H](C#N)NC(=O)[C@@H]2CCCCN2)cc1F
Satisfied

Does the reported ΔTm of the following compound sit strictly below 0.4 °C? CCCCCNC(=O)N1CCC(CN(Cc2ccc(Cl)cc2)Cc2ccc([N+](=O)[O-])s2)C1 (stereo not given)
Not satisfied

Here's an entry: C[C@@H](Oc1cc(-n2cnc3ccc(OC4CCN(C)CC4)cc32)sc1C(N)=O)c1ccccc1Cl . Is its ΔTm below 0.4 °C?
Satisfied

Input COc1ccc(S(=O)(=O)N2CCOCC2)cc1Nc1ccc2c(n1)N(C1CCN(C)CC1)[C@H](C)C(=O)N2C ; condition: ΔTm strictly below 0.4 °C. Does it hold?
Not satisfied

Identify whether the compound Clc1cccc(Nc2nccc(NCCCN3CCOCC3)n2)c1 records ΔTm below 0.4 °C.
Not satisfied

Every entry's value here was drawn from ChEMBL document CHEMBL5308504.
